assayed target: 5'-nucleotidase (Homo sapiens)
Sequence (P21589 whole entry): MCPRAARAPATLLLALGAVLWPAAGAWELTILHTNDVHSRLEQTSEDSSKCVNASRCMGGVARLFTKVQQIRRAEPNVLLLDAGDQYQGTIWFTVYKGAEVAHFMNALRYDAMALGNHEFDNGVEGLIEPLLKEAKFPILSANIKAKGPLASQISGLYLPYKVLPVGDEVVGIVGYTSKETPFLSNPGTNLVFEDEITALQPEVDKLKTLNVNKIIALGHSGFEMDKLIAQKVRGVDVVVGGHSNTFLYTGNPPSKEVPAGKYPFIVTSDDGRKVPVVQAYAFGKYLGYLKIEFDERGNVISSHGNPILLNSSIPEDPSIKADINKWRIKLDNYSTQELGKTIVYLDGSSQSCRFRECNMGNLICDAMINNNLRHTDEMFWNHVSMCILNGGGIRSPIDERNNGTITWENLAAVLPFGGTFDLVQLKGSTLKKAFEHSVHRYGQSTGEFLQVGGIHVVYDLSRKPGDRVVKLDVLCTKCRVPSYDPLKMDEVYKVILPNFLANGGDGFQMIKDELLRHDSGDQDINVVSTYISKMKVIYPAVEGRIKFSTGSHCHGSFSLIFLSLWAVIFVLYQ
protocol details: Inhibition of recombinant human C-terminal His-tagged soluble form of CD73 expressed in baculovirus infected Sf9 insect cells using [2,8-3H]AMP as substrate measured after 25 mins by scintillation counting method
readout type: Ki (nM)

Recorded Ki, per entry:
[[record]]
molecular_string = "O=C(Nc1ccn([C@@H]2O[C@H](COP(=O)(O)CP(=O)(O)O)[C@@H](O)[C@H]2O)c(=O)n1)c1ccccc1"
assayed_target = "5'-nucleotidase (Homo sapiens)"
value_observed = 4.58

[[record]]
molecular_string = "O=c1[nH]/c(=N/OCc2ccc3ccccc3c2)ccn1[C@@H]1O[C@H](COP(=O)(O)CP(=O)(O)O)[C@@H](O)[C@H]1O"
assayed_target = "5'-nucleotidase (Homo sapiens)"
value_observed = 6.88


I = O=c1[nH]c(=O)n([C@@H]2O[C@H](COP(=O)(O)CP(=O)(O)O)[C@@H](O)[C@H]2O)cc1F
II = O=c1[nH]/c(=N/OCc2ccccc2)c(F)cn1[C@@H]1O[C@H](COP(=O)(O)CP(=O)(O)O)[C@@H](O)[C@H]1O
In: Min Ki? I | II Your answer should be the label attached to the chosen record.
Out: I
(I: 5.33 nM, II: 15.9 nM)

###

assayed target: 5'-nucleotidase (Rattus norvegicus, UniProt P21588)
protocol details: Inhibition of recombinant rat C-terminal His-tagged soluble form of CD73 expressed in baculovirus infected Sf9 insect cells using [2,8-3H]AMP as substrate measured after 25 mins by scintillation counting method
readout type: Ki (nM)

P = Nc1ncnc2c1ncn2[C@@H]1O[C@H](COP(=O)(O)CP(=O)(O)O)C[C@H]1O
Q = O=c1[nH]/c(=N/OCc2ccccc2)c(F)cn1[C@@H]1O[C@H](COP(=O)(O)CP(=O)(O)O)[C@@H](O)[C@H]1O
R = C#Cc1cn([C@@H]2O[C@H](COP(=O)(O)CP(=O)(O)O)[C@@H](O)[C@H]2O)c(=O)[nH]c1=O
S = O=c1[nH]/c(=N/OCc2ccccc2)ccn1[C@H]1C[C@H](O)[C@@H](COP(=O)(O)CP(=O)(O)O)O1
In: Arrange items by their Ki values in increasing order. Returns: the labels arranged in the requested order.
Out: Q, R, S, P

###

assayed target: P2Y purinoceptor 6 (Homo sapiens, UniProt Q15077)
Sequence (Q15077 whole entry): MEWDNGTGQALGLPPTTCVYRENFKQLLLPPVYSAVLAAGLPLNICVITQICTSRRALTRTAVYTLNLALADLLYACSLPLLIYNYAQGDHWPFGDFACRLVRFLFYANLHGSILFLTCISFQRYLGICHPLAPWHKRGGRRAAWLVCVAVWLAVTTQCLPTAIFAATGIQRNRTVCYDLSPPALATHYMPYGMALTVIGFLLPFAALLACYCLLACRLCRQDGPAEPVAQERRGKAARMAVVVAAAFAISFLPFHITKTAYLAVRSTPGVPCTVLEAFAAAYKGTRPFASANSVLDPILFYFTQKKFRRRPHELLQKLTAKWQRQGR
protocol details: Agonist activity at human P2Y6 receptor expressed in human 1321N1 cells assessed as induction of calcium mobilization by calcium-4 dye based FLIPR assay
pEC50: −log10 of the molar value.
readout type: pEC50

1 = O=c1[nH]c(=O)n([C@@H]2O[C@H](COP(=O)(O)CP(=O)(O)O)[C@@H](O)[C@H]2O)cc1F
2 = O=C(Nc1ccn([C@@H]2O[C@H](COP(=O)(O)CP(=O)(O)O)[C@@H](O)[C@H]2O)c(=O)n1)c1ccccc1
In: API: POST /compare with 1 and 2 ; response names the item with higher pEC50. The response must carry the label of the picked entry.
Out: 1
(1: 6.69, 2: 5.86)

###

assayed target: 5'-nucleotidase (Rattus norvegicus, UniProt P21588)
Sequence (P21588 whole entry): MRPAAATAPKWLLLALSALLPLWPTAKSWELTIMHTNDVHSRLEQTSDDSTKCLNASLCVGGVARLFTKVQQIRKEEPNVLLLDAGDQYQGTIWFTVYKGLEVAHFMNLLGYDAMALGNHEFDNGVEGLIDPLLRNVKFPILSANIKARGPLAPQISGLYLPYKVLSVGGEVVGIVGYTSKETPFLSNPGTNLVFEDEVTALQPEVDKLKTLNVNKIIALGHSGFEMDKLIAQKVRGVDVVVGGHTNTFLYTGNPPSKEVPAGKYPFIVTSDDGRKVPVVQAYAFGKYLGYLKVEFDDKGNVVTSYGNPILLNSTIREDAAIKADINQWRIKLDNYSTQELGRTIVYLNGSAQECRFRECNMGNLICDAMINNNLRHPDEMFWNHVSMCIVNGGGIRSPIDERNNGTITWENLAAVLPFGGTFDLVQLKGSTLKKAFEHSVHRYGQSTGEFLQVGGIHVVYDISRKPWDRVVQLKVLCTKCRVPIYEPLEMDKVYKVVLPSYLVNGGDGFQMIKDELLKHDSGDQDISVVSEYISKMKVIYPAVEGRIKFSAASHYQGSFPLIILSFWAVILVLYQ
protocol details: Inhibition of recombinant rat C-terminal His-tagged soluble form of CD73 expressed in baculovirus infected Sf9 insect cells using [2,8-3H]AMP as substrate measured after 25 mins by scintillation counting method
pKi: −log10 of the molar value.
readout type: pKi

Solved cases (3 shown):
[[record]]
molecular_string = "Cc1cn([C@H]2C[C@H](O)[C@@H](COP(=O)(O)CP(=O)(O)O)O2)c(=O)[nH]c1=O"
value_observed = 6.19

[[record]]
molecular_string = "O=c1[nH]c(=O)n([C@@H]2O[C@H](COP(=O)(O)CP(=O)(O)O)[C@@H](O)[C@H]2O)cc1Cl"
value_observed = 7.06

[[record]]
molecular_string = "O=c1ccn([C@@H]2O[C@H](COP(=O)(O)CP(=O)(O)O)[C@@H](O)[C@@H]2F)c(=O)[nH]1"
value_observed = 5.76


I = CCn1c(=O)n([C@@H]2O[C@H](COP(=O)(O)CP(=O)(O)O)[C@@H](O)[C@H]2O)cc/c1=N\OCc1ccccc1
II = Nc1ccn([C@@H]2O[C@H](COP(=O)(O)CP(=O)(O)O)[C@@H](O)[C@H]2O)c(=O)n1
III = Nc1ncnc2c1ccn2[C@@H]1O[C@H](COP(=O)(O)CP(=O)(O)O)[C@@H](O)[C@H]1O
IV = Cc1cn([C@@H]2O[C@H](COP(=O)(O)CP(=O)(O)O)[C@@H](O)[C@H]2O)c(=O)nc1N
In: Ascending by pKi, please: list the compounds accordingly. In plain terms: list the labels in the order you were asked to.
Out: IV, II, I, III
